target: UniProtKB Q14004
Sequence (Q14004 whole entry): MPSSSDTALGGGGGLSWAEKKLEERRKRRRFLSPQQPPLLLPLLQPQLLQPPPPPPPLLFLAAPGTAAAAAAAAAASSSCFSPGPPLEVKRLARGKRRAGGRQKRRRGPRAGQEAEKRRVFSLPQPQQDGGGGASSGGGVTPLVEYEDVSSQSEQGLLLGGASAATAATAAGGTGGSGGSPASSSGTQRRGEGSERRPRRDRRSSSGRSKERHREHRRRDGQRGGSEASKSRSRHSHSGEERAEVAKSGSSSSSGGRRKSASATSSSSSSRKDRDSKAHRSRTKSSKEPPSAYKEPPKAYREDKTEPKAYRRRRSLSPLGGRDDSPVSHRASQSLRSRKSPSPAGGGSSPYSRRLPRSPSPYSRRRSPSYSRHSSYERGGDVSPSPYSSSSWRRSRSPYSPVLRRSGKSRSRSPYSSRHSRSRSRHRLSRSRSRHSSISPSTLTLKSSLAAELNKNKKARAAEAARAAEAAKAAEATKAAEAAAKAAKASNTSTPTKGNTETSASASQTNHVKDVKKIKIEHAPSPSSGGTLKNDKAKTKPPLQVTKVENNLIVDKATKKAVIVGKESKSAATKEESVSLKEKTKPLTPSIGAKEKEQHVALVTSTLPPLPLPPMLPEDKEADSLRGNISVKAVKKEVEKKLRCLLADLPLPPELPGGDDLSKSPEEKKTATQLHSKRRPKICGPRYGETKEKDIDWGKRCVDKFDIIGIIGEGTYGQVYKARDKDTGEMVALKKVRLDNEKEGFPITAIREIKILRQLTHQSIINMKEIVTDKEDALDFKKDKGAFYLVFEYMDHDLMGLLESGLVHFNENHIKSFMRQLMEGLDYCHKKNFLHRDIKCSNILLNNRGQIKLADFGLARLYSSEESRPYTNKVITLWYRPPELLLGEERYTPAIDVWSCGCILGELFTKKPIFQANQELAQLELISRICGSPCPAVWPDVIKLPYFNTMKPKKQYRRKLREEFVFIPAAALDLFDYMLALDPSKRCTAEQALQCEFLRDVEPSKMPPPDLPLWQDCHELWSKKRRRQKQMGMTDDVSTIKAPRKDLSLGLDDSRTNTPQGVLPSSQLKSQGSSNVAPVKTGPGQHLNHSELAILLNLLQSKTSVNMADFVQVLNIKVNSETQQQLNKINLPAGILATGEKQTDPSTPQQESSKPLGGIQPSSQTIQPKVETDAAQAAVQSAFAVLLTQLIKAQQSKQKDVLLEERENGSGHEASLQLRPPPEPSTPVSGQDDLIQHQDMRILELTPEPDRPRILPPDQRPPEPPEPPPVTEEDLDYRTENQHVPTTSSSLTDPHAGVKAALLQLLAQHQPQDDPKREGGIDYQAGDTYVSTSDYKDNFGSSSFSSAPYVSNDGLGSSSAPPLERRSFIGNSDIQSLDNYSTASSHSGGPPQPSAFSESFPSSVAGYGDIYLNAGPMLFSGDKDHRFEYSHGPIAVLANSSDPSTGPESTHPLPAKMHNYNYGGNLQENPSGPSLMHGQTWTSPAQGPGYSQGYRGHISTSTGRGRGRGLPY
parameter: pKd
Give bare numbers, as −log10 of the molar value.

Example compounds with recorded pKd:
In [3]: df
Out[3]:
                            compound_smiles  parameter  readout_value
0  Cn1cc(-n2cnc3c(NCc4nc5cc(Cl)c(Cl)cc5[nH]4)nc(N4CCOCC4)nc32)cn1        pKd           8.30
1  Cc1cc(-n2cnc3c(NCc4nc5c(F)c(F)ccc5[nH]4)nc(N4CCOCC4)nc32)no1        pKd           8.40

Note to self: pKd recorded for Cn1cc(-n2cnc3c(NCc4nc5c(F)c(F)ccc5[nH]4)nc(N4CCOCC4)nc32)cn1 was 8.30
